- System: T-cell
- methodNotes: IL-2 secretion from T-cells co-stimulated with anti-CD3 and anti-CD28 antibody (Biological Example 2)
- Assay type: cell-based, human
- measurementSetup: Homo sapiens, T-cell, 1 μM compound; primary human total T-cells; baseline = anti-CD3/anti-CD28 stimulated cells without inhibitor; read-out: IL-2 secretion, Anti-CD3/Anti-CD28 stimulation, fold change over baseline
Quick list: fold induction at 1 µM per entry.

Consider the reported fold induction at 1 µM for these compounds:
compound	fold induction at 1 µM
C[C@H](Cc1nncn1C)c1cccc(N2Cc3c(cc(N[C@H]4CCNC4)cc3C(F)(F)F)C2=O)c1 [Compound 379]	2.51 to 5
Cn1cnnc1CC1(c2cccc(N3Cc4c(cc(CN5CCC[C@H](F)C5)cc4C(F)(F)F)C3=O)c2)COC1 [Compound 432]	> 7.5
C[C@@H]1CN(C)CCN1c1cc2c(c(C(F)(F)F)c1)CN(c1cccc([C@@](C)(F)C(F)(F)c3nncn3C)c1)C2=O [Compound 443]	1.01 to 2.5
Cn1cnnc1CC1(c2cccc(N3Cc4c(cc(CN5CC(C)(C#N)C5)cc4C(F)(F)F)C3=O)c2)COC1 [Compound 425]	> 7.5

// field: fold induction at 1 µM; key: Cc1conc1CC1(c2cccc(NC(=O)c3cc(CN4CCC5(CC5)C4)cc(C4CC4)n3)c2)COC1 [Compound 500] ; value = > 7.5

Record summary for C[C@H](O)CNc1cc([C@H](C)Cc2nncn2C)cc(N2Cc3c(cccc3C(F)(F)F)C2=O)n1 [Compound 364] : reported fold induction at 1 µM = 1.01 to 2.5

Summary for this compound, CC[C@@H](c1cc2c(c(C(F)(F)F)c1)CN(c1cccc(C3(Cc4nncn4C)COC3)c1)C2=O)N1CC[C@H](F)C1 [Example 545] : fold induction at 1 µM is > 7.5
